Target: HA of influenza B virus B/Florida/04/2006 (live virus) (influenza B virus B/Florida/04/2006)
Assay: cell-based or functional assay
readout name: HI titers (µg/mL)

- CR10023 (antibody, V domains shown) VH: EVQLVETGGGLVQPGRSLRLSCAASGFTFDDYAMHWVRQAPGKGLEWVSGINWVSTTMGYADSVKGRFTISRDNAKNSLYLQMNSLRAEDTALYYCAKDRLESAAIDILEGGTFDIRGQGTMVTVSS VL: QSALTQPPSASGSPGQSVTISCTGTSSDVGGYNYVSWYQQHPGKAPKLMIYDVSKRPSGVPDRFSGSKSGNTASLTISGLQAEDEAEYYCSSYASGSTYVFGTGTKVTVL: 1.56
- CR11039 (antibody, V domains shown) VH: EVQLVQSGAEVKKPGESVKISCKTSGYAFTGYGISWVRQAPGQGLEWMGWINTYKFNTNYAQNLQGRVTMTIDTSTSAAYMELRSLRYEDTAVYFCARDWAGPFGNAFDVWGQGTMVTVSS VL: IQMTQSPSSLSASIGDRVAITCQASQDISDYLNWYQQQPGKAPKLLLYGASNLETGVPSRFSGSGSGTDFTFTISSLQPEDIATYYCQQYGNLPPTFGGGTKLEIK: 0.63
